Tested on: A549 (human lung carcinoma)
Assay: SRB cytotoxicity assay, A549 cells
Assay type: cell-based
Conditions: A549, SRB assay, 0.16–20 µg/mL, 72 h, read-out: IC50 A549
Description: The methanol extracts and the isolated compounds were evaluated for their cytotoxic activities against several cell lines, including murine lymphocytic leukaemia (P-388), human oral epidermoid carcinoma (KB), human colon carcinoma (Col-2 and HT-29), human breast cancer (MCF-7), human lung carcinoma (Lu-1 and A549), rat glioma (ASK), and noncancerous human embryonic kidney cell (HEK-293) by sulforhodamine B (SRB) assay in 96-well microtiter plates (Skehan et al. [1990]). […]
Reported IC50 values are given for each entry in this list.
property: IC50 (µM)

{"molecule": "Cc1c2ccncc2c(C)c2c1[nH]c1ccccc12 [Ellipticine, reference compound]", "unitOfMeasure": "µM", "readoutRelation": "=", "resultValue": 2.64}
{"molecule": "COc1cccc2c1-c1c3c(cc4ccnc(c14)C2=O)OCO3", "unitOfMeasure": "µM", "readoutRelation": "=", "resultValue": 7.21}
{"molecule": "COc1ccc([C@@H]2Oc3c(OC)cc(CCCO)cc3[C@H]2CO)cc1OC", "unitOfMeasure": "µM", "readoutRelation": "=", "resultValue": 10.3}
{"molecule": "COc1ccc(C2OCC3C(c4ccc(OC)c(OC)c4)OCC23)cc1OC (single isomer, unassigned; (-)) [Compound 1, (–)-epieudesmin]", "unitOfMeasure": "µM", "readoutRelation": ">", "resultValue": 20}
{"molecule": "CC1(C(=O)O)CCCC2(C)C1CC(O)C13CC4C(CC21)C4(C)C3 (stereo not drawn)", "unitOfMeasure": "µM", "readoutRelation": ">", "resultValue": 20}
{"molecule": "COc1cc(OC)cc(C2OCC3C(c4ccc(OC)c(OC)c4)OCC23)c1 (stereo not drawn)", "unitOfMeasure": "µM", "readoutRelation": ">", "resultValue": 20}
{"molecule": "COc1cc(C2OCC3C(c4ccc(OC)c(OC)c4)OCC23)ccc1O (single isomer, unassigned; (-))", "unitOfMeasure": "µM", "readoutRelation": ">", "resultValue": 20}
{"molecule": "COc1cc(/C=C/C(=O)NCCc2ccc(O)cc2)ccc1O [Compound 9, N-trans-feruloyltyramine]", "unitOfMeasure": "µM", "readoutRelation": ">", "resultValue": 20}
{"molecule": "COc1cc(C2OCC(C(=O)c3ccc(OC)c(OC)c3)C2CO)ccc1O (stereo not drawn)", "unitOfMeasure": "µM", "readoutRelation": ">", "resultValue": 20}
{"molecule": "COc1cccc2c1C(=O)c1c(C)cc(=O)[nH]c1C2=O", "unitOfMeasure": "µM", "readoutRelation": "=", "resultValue": 12.3}
{"molecule": "CCC(CCC(C)C1CCC2C3CC=C4CC(OC5OC(CO)C(O)C(O)C5O)CCC4(C)C3CCC12C)C(C)C (stereo not drawn) [Compound 4, stigma-5-en-3-O-β-glucopyranoside]", "unitOfMeasure": "µM", "readoutRelation": ">", "resultValue": 20}
{"molecule": "COc1ccc(C(=O)[C@H]2CO[C@H](c3ccc(OC)c(OC)c3)[C@H]2CO)cc1OC", "unitOfMeasure": "µM", "readoutRelation": "=", "resultValue": 37.9}
